// data source = patent US5369112A

- Tested on: mice
- Experimental conditions: mouse, in vivo, ip, 20 mg/kg
Quantity: glucose in urine

# Compound, Test system, Data value
records = [
    ("C=CCOC(=O)c1cc(C(=O)OCC=C)c2c(n1)C(=O)C(=O)c1cc(C(=O)OCC=C)[nH]c1-2 [PQQ triallyl ester]", "mice", "-"),
    ("CCC(C)c1nc2c3nc(C(=O)O)cc(C(=O)O)c3c3[nH]c(C(=O)O)cc3c2o1 (stereo not drawn) [1-Methylpropyl OPQ, 1-methylpropyl OPQ (R=CH(CH3)CH2 CH3)]", "mice", "-"),
    ("CSCCc1nc2c3nc(C(=O)O)cc(C(=O)O)c3c3[nH]c(C(=O)O)cc3c2o1 [2-Methylthioethyl OPQ, 2-methylthioethyl OPQ (R= CH2 CH2 SCH3)]", "mice", "-"),
]
